Source listed as patent US8617872B2.

# Tested on: Y. entero gp.
# method: Antibiotic susceptibility test (MICROSCAN or disc diffusion), control organism Y. entero gp.
# Format: cell-based
# run parameters: total isolates 1
Consider the following compounds and their measured Antibiotic Susceptibility Test Results, Y. entero gp. readings.
Quick note: give the figure in %, leave out the unit.

Take a look at these entries with their results.
- molecule smiles: "C[C@H]1[C@H](NC(=O)/C(=N\\OC(C)(C)C(=O)O)c2csc(N)n2)C(=O)N1S(=O)(=O)O"
  result value: 0
- molecule smiles: "O=C(O)c1cn(C2CC2)c2cc(N3CCNCC3)c(F)cc2c1=O"
  result value: 100
- molecule smiles: "CC(C)(O/N=C(\\C(=O)N[C@@H]1C(=O)N2C(C(=O)[O-])=C(C[n+]3ccccc3)CS[C@H]12)c1csc(N)n1)C(=O)O"
  result value: 100

Which value of Antibiotic Susceptibility Test Results, Y. entero gp. has been reported for "CO/N=C(\C(=O)N[C@@H]1C(=O)N2C(C(=O)O)=C(COC(C)=O)CS[C@H]12)c1csc(N)n1" in the records?
100
